molecular target: T1, Cav3.1 (Homo sapiens, UniProt O43497); experiment: Whole-cell patch clamp of Cav3.1 dependent LVA calcium current in HEK-293/Cav3.1 cells transiently transfected with γ subunits (Example 1); type: cell-based; conditions: Table 2
T1 construct: expressed in transfected cells; host or cells: HEK-293, stably transfected
T1 sequence (O43497 whole entry): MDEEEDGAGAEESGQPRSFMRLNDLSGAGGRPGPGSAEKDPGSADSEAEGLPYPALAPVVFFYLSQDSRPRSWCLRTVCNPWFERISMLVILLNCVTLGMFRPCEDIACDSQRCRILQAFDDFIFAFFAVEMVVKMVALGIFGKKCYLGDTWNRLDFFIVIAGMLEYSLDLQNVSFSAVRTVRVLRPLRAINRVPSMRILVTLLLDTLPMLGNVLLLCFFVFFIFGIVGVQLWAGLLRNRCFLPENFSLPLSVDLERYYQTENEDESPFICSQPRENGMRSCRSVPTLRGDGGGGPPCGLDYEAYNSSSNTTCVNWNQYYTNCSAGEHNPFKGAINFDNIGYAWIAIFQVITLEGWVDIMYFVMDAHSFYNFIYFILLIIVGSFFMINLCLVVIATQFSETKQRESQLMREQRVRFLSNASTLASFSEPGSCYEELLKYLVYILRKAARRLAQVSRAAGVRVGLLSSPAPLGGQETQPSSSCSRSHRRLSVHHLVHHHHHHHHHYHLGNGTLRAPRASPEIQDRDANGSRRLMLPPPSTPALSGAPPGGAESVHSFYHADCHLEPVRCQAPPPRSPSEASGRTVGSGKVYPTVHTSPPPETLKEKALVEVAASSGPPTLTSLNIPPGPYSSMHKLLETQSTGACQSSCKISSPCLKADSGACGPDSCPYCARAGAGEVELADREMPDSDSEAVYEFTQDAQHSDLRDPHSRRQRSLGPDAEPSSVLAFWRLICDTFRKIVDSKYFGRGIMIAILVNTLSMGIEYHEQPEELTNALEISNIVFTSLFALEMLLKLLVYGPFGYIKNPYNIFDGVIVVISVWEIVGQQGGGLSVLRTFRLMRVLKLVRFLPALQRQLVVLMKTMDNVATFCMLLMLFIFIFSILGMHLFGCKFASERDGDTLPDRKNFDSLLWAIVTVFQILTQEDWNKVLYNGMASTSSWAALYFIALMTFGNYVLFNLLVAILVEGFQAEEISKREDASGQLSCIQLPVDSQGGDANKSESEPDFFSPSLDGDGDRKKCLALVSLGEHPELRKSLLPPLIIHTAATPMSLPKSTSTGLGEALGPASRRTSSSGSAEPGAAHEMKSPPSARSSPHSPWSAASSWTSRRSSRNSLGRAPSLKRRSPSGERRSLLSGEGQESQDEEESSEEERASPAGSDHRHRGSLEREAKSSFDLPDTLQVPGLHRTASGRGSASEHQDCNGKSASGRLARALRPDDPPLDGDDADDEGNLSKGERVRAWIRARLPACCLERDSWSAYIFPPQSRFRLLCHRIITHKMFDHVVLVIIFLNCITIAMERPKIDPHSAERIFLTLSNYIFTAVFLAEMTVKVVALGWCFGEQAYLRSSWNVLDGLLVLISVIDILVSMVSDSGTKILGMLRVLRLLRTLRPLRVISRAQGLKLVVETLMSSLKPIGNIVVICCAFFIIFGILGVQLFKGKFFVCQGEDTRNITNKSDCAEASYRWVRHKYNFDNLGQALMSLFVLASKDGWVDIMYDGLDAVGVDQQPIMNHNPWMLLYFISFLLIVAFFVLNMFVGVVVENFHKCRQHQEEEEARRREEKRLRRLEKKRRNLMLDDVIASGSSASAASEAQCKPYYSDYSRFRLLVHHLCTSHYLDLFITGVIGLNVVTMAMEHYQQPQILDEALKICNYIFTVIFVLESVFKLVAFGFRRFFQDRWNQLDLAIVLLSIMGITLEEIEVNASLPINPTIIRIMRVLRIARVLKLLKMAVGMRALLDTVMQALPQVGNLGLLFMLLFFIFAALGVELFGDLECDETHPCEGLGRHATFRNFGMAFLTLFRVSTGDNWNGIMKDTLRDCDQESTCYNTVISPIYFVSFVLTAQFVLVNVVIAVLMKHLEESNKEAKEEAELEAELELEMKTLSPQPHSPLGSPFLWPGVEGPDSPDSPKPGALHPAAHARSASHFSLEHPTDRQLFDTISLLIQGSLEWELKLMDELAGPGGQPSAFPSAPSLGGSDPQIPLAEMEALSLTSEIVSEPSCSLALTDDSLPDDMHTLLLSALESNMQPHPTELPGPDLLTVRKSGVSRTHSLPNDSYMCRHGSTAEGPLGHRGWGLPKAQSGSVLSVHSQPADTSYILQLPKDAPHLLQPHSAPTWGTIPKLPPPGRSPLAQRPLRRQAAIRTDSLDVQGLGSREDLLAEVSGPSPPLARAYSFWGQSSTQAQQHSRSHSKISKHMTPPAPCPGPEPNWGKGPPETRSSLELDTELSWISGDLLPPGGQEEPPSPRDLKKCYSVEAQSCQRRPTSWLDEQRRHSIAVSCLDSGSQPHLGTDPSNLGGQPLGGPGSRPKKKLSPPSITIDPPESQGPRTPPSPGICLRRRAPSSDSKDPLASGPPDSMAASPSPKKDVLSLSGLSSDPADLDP
measured-endpoint: Time to peak @ −20 mV

Qu. Consider the molecule γ7: rat calcium channel γ7 subunit (AF361345), SEQ ID NO:50 (protein, listed as Rattus norvegicus) MSHCSSRALTLLSSVFGACGLLLVGIAVSTDYWLYMEEGTVLPQNQTTEVKMALHAGLWRVCFFAGREKGRCVASEYFLEPEINLVTENTENILKTVRTATPFPMVSLFLVFTAFVISNIGHIRPQRTILAFVSGIFFILSGLSLVVGLVLYISSINDEVMNRPSSSEQYFHYRYGWSFAFAASSFLLKEGAGVMSVYLFTKRYAEEEMYRPHPAFYRPRLSDCSDYSGQFLQPEAWRRGRSPSDISSDVSIQMTQNYPPAIKYPDHLHISTSPC . State its measured Time to peak @ −20 mV.
Ans. 7.0 ± 0.4 (n = 11) ms
